So I've got a bunch of compounds here, and I need their melting point values.

// returns reported melting point for input CCOc1ccc(N)cc1CO
77 to 79 °C

Repeat for the following compound: CN(Cc1ccccc1)S(=O)(=O)c1ccc(N)cc1
127 to 131 °C

Repeat for the following compound: CC(=Cc1ccc(Cl)cc1)C(=O)O
159 to 161 °C

Repeat for the following compound: Cc1cc(C(=O)O)c(C)n1-c1cccc(Br)c1
158 to 160 °C

Repeat for the following compound: O=C(COc1ccccc1)Nc1cc(Cl)ccc1C(=O)O
247 to 249 °C

Repeat for the following compound: CCOC(=O)NC1CCC(O)CC1 (stereo not drawn)
132 to 134 °C

Repeat for the following compound: O=C(O)CC1c2ccccc2Oc2ccccc21
153 to 155 °C

Repeat for the following compound: O=C(O)C1CCN(C(=O)N2CCCC2)CC1
144 to 146 °C

Repeat for the following compound: O=C(O)c1cc(=O)[nH]c2ccc([N+](=O)[O-])cc12
375 to 377 °C

Repeat for the following compound: CCOC(=O)c1cnc2ccc(C)cc2c1Cl
62 to 64 °C

Repeat for the following compound: O=c1[nH]c2ccc(S(=O)(=O)Cl)cc2o1
151 to 155 °C

Repeat for the following compound: Cc1nc(-c2ccc(S(N)(=O)=O)cc2)co1
245 to 247 °C

Repeat for the following compound: CC(=O)CC(=O)Nc1ccc(I)cc1
142 to 144 °C

Repeat for the following compound: Oc1ccc(OCC(F)(F)F)cc1
60 to 62 °C

Repeat for the following compound: O=C(O)c1ccc(C(=O)c2cc[nH]c2)cc1
219 to 221 °C

Repeat for the following compound: NS(=O)(=O)C1CCNC1 (stereo not drawn)
115 to 117 °C

Repeat for the following compound: N#Cc1cccnc1-n1cncn1
201 to 203 °C

Repeat for the following compound: O=C(O)c1cccc(N2NC(=O)C3CC=CCC3C2=O)c1 (stereo not drawn)
185 to 187 °C

Repeat for the following compound: CCOC(=O)CNC(=O)OCC(F)(F)F
38 to 40 °C

Repeat for the following compound: O=C(O)C=C1CCCC1
61 to 63 °C

Repeat for the following compound: Cc1cc(-n2nccc2N)ncn1
59 to 61 °C

Repeat for the following compound: CC(C)c1c(C(=O)O)cnn1-c1ccccn1
129 to 131 °C

Repeat for the following compound: FC(F)(F)c1ccc(C2CCCCN2)cc1 (stereo not drawn)
36 to 38 °C

Repeat for the following compound: CC1(C)OC(=O)C(=Cc2ccc(I)o2)C(=O)O1
124 to 126 °C

Repeat for the following compound: Cc1nc(COc2ccc(C=O)cc2)no1
57 to 59 °C

Repeat for the following compound: Cc1cc(C(=O)O)c2ccc(Br)cc2n1
289 to 291 °C

Repeat for the following compound: COc1cc2cc(C(=O)O)[nH]c2cc1OC
199 to 201 °C

Repeat for the following compound: CC(C)C(N)c1nnc2ccccn12 (stereo not drawn)
116 to 118 °C

* * *

So I've got a bunch of compounds here, and I need their melting point values.

// returns reported melting point for input CC(C)(C)OC(=O)Nc1cocn1
108 to 110 °C

Repeat for the following compound: CC(C)(C)c1ccc(CCCCC(=O)O)cc1
71 to 73 °C

Repeat for the following compound: O=C(O)CCNC(=O)NC1CCCCC1
163 to 165 °C

Repeat for the following compound: CC(C#N)Oc1cc(F)ccc1N (stereo unspecified)
89 to 91 °C

Repeat for the following compound: O=C(O)c1cccn1Cc1ccccc1
124 to 126 °C

Repeat for the following compound: CN1C(=O)CCC(C(=O)O)C1c1ccccc1 (stereo unspecified)
204 to 206 °C

Repeat for the following compound: Nc1ccc(F)cc1-n1cccc1
84 to 86 °C

Repeat for the following compound: O=c1[nH]cnc2c1oc1ccccc12
300 to 302 °C

Repeat for the following compound: O=Cc1cccc(NC(=O)c2ccc(Cl)cc2)c1
129 to 131 °C

Repeat for the following compound: O=C(O)c1csc(-c2ccc3c(c2)OCCO3)n1
199 to 201 °C

Repeat for the following compound: CC(=O)c1c(C)nc2sccn12
132 to 134 °C

Repeat for the following compound: CN(C)S(=O)(=O)c1cc(Br)cnc1N
173 to 175 °C

Repeat for the following compound: CN(C)S(=O)(=O)c1ccc(N)c(N)c1
193 to 195 °C

Repeat for the following compound: COc1cc(Br)c2c(c1)NC(=O)C2=O
179 to 181 °C

Repeat for the following compound: O=C(O)CCc1nc2cc(C(F)(F)F)ccc2n(Cc2ccccc2)c1=O
171 to 173 °C

Repeat for the following compound: ClCc1nc(-c2ccco2)no1
82 to 84 °C

Repeat for the following compound: S=C(NCc1cccnc1)NCc1cccnc1
157 to 159 °C

Repeat for the following compound: CCOc1cc(C=O)ccc1OCCOc1ccc(F)cc1
85 to 87 °C

Repeat for the following compound: O=C(O)c1csc(I)c1
136 to 138 °C

Repeat for the following compound: COC(=O)C(=O)CC(=O)c1ccccc1OC
80 to 84 °C

Repeat for the following compound: O=C(O)Cn1nc(-c2ccccc2)oc1=O
196 to 198 °C

Repeat for the following compound: CC1(C)C2CCC1(CS(=O)(=O)F)C(=O)C2 (stereo unspecified)
79 to 81 °C

Repeat for the following compound: BrCCCOc1ccc2ccccc2c1
56 to 58 °C

Repeat for the following compound: Cc1ccc(OC(C)C(=O)O)c(Br)c1 (stereo unspecified)
120 to 122 °C

Repeat for the following compound: O=C1OCCN1S(=O)(=O)Cl
94 to 96 °C

Repeat for the following compound: CC1CCc2c(sc3nc(CCl)[nH]c(=O)c23)C1 (stereo unspecified)
180 to 182 °C

Repeat for the following compound: N#Cc1ccc(F)c(CS(=O)(=O)Cl)c1
105 to 107 °C

Repeat for the following compound: COc1cc2c(cc1[N+](=O)[O-])C(=O)CCC2
176 to 178 °C

Repeat for the following compound: C#Cc1cccc(NC(=O)CCl)c1
120 to 122 °C

Repeat for the following compound: Nc1ccc(Sc2nc3ccccc3[nH]2)cc1
224 to 226 °C

Repeat for the following compound: O=c1[nH]ccc2ccn(Cc3ccccc3)c12
177 to 179 °C

Repeat for the following compound: COc1ccccc1Nc1nnc(S)s1
182 to 184 °C

Repeat for the following compound: CCN(CC)S(=O)(=O)c1ccc(C)c(N)c1
108 to 112 °C

Repeat for the following compound: O=C1CCCOc2cc(Br)ccc21
39 to 41 °C

Repeat for the following compound: CC(C)C(Br)C(=O)Nc1ccccc1F (stereo unspecified)
98 to 100 °C

Repeat for the following compound: Cc1nc(-c2cccc(NC(=O)OCC(F)(F)F)c2)cs1
94 to 96 °C

Repeat for the following compound: COc1ccccc1-c1ccccc1C(=O)O
149 to 151 °C

Repeat for the following compound: Cc1[nH]c(=O)[nH]c(=O)c1C#N
351 to 353 °C

Repeat for the following compound: CC(=O)Nc1cccc(CCl)c1
83 to 85 °C

Repeat for the following compound: CC(O)CN1C(=O)C=CC1=O (stereo unspecified)
74 to 76 °C

Repeat for the following compound: CN1CCN(C(=O)C2CNc3ccccc3O2)CC1 (stereo unspecified)
132 to 134 °C

Repeat for the following compound: O=C1C=CC(=O)N1c1cccc(Cl)c1
86 to 88 °C

Repeat for the following compound: COC(=O)c1cc(C(=O)OC)cc(-n2c(C)cc(C(=O)CCl)c2C)c1
153 to 155 °C

Repeat for the following compound: COc1ncnc(Cl)c1N
70 to 72 °C

Repeat for the following compound: CCC1(C(C)C)NC(=O)NC1=O (stereo unspecified)
164 to 166 °C

Repeat for the following compound: CSCc1cccc(C(=O)O)c1
78 to 80 °C

Repeat for the following compound: Cc1nc(Cl)cc(Cl)n1
44 to 46 °C

Repeat for the following compound: O=C1C=CC(=O)N1c1cccc2ccccc12
103 to 105 °C

Repeat for the following compound: COc1ccccc1NC(=O)c1ccc(NC(=O)C(C)Cl)cc1 (stereo unspecified)
149 to 151 °C

Repeat for the following compound: O=S(=O)(Cl)c1cc(Cl)cc2c1OCC2
105 to 107 °C

Repeat for the following compound: CC(=O)C(CN1C(=O)c2ccccc2C1=O)C(C)=O
169 to 171 °C

Repeat for the following compound: O=C(O)C=CC1CCC=CO1 (stereo unspecified)
81 to 83 °C

Repeat for the following compound: CN(CC(=O)O)c1ncnc2nc[nH]c12
237 to 239 °C

Repeat for the following compound: COc1cc(CN)cc(OC)c1O
149 to 151 °C

Repeat for the following compound: CCOc1ccc(Oc2ccc(C(F)(F)F)cc2N)cc1
45 to 47 °C

Repeat for the following compound: O=C(O)c1cnc2c(cnn2Cc2cccnc2)c1
248 to 250 °C
